Each recorded value in this set is attributed to ChEMBL document CHEMBL1158537.

These molecules were tested on Klebsiella pneumoniae; MIC is the recorded read-out.

# count of solved cases: 4
>>> recorded_value("CC(C)(C)c1ccc(COC[C@H]2O[C@@H](O[C@@H]3[C@@H](OCc4ccc(C(C)(C)C)cc4)[C@H](N)C[C@H](N)[C@H]3O[C@H]3O[C@H](CN)[C@@H](OCc4ccc(C(C)(C)C)cc4)[C@H](OCc4ccc(C(C)(C)C)cc4)[C@H]3N)[C@H](OCc3ccc(C(C)(C)C)cc3)[C@@H]2O[C@H]2O[C@@H](CN)[C@@H](OCc3ccc(C(C)(C)C)cc3)[C@H](OCc3ccc(C(C)(C)C)cc3)[C@H]2N)cc1.O=C(O)C(F)(F)F")
"> 128 µg/mL"
>>> recorded_value("NC[C@H]1OC(O[C@H]2[C@H](OCc3ccc(Cl)cc3)[C@@H](O[C@H]3O[C@H](COCc4ccc(Cl)cc4)[C@@H](OCc4ccc(Cl)cc4)[C@H](N)[C@H]3OCc3ccc(Cl)cc3)[C@H](N)C[C@@H]2N)[C@H](OCc2ccc(Cl)cc2)[C@@H](OCc2ccc(Cl)cc2)[C@@H]1OCc1ccc(Cl)cc1.O=C(O)C(F)(F)F (stereo not given in full)")
"> 128 µg/mL"
>>> recorded_value("COC[C@H]1O[C@H](O[C@@H]2[C@@H](OC)[C@H](OC3O[C@H](CN)[C@@H](OC)[C@H](OC)[C@H]3OC)[C@@H](N)C[C@H]2N)[C@H](OC)[C@@H](N)[C@@H]1OC.O=C(O)C(F)(F)F (stereo not given in full)")
"> 256 µg/mL"
>>> recorded_value("NC[C@H]1OC(O[C@H]2[C@H](OCc3ccccc3)[C@@H](O[C@H]3O[C@H](COCc4ccccc4)[C@@H](OCc4ccccc4)[C@H](N)[C@H]3OCc3ccccc3)[C@H](N)C[C@@H]2N)[C@H](OCc2ccccc2)[C@@H](OCc2ccccc2)[C@@H]1OCc1ccccc1.O=C(O)C(F)(F)F (stereo not given in full)")
"> 64 µg/mL"

Shifting focus to the molecule that follows.
I would be grateful if you could share the reported MIC for COC[C@H]1O[C@@H](O[C@@H]2[C@@H](OC)[C@H](N)C[C@H](N)[C@H]2O[C@H]2O[C@H](CN)[C@@H](OC)[C@H](OC)[C@H]2N)[C@H](OC)[C@@H]1O[C@H]1O[C@@H](CN)[C@@H](OC)[C@H](OC)[C@H]1N.O=C(O)C(F)(F)F .
> 256 µg/mL
